# Tested on: velvetleaf
# test-method-notes: Soil treatment test for upland field
# Assay type: in vivo, Abutilon theophrasti
# Parameters: key: 0: normal development; 1: Less damaged; 2: Slightly damaged; 3: Moderately damaged; 4: Severely damaged; 5: All killed
# experimental-conditions: 500 g/ha, glass house 25° C., 3 weeks
Effects Velvetleaf listing for selected compounds.

- compound: "CCC(Oc1ccc(Cl)c(C(F)(F)F)c1)c1nc2cc([N+](=O)[O-])ccc2o1 (centres unmarked) [Compound 432]"
  Effects Velvetleaf: 2
- compound: "CCCC(Oc1cccc(C#N)c1)c1nc2cc(S(C)(=O)=O)ccc2o1 (centres unmarked) [Compound 508]"
  Effects Velvetleaf: 3
- compound: "CCCC(Oc1cccc(C(F)(F)F)c1)c1nc2cc(C#N)c(C#N)cc2o1 (centres unmarked) [Compound 317]"
  Effects Velvetleaf: 5
- compound: "CCC(Oc1ccc(Cl)c(C(F)(F)F)c1)c1nc2cc(F)ccc2o1 (centres unmarked) [Compound 441]"
  Effects Velvetleaf: 1
- compound: "CCC(Oc1ccc(F)c(C(F)(F)F)c1)c1nc2cc(S(C)(=O)=O)ccc2o1 (centres unmarked) [Compound 215]"
  Effects Velvetleaf: 5
- compound: "CCC(Oc1cccc(C#N)c1)c1nc2cc(Cl)c(C)cc2o1 (centres unmarked) [Compound 481]"
  Effects Velvetleaf: 3
- compound: "CCC(Oc1cccc(C(F)(F)F)c1)c1nc2ccc(C(F)(F)F)cc2o1 (centres unmarked) [Compound 94]"
  Effects Velvetleaf: 0
- compound: "CCCC(Oc1ccc(F)c(C(F)(F)F)c1)c1nc2cc(S(C)(=O)=O)ccc2o1 (centres unmarked) [Compound 217]"
  Effects Velvetleaf: 5
- compound: "CCC(Oc1ccc(F)c(C(F)(F)F)c1)c1nc2cc(C#N)c(Cl)cc2o1 (centres unmarked) [Compound 517]"
  Effects Velvetleaf: 3
- compound: "CCC(Oc1ccc(F)c(C(F)(F)F)c1)c1nc2cc(F)c(Cl)cc2o1 (centres unmarked) [Compound 493]"
  Effects Velvetleaf: 5
- compound: "CCC(Oc1ccc(Cl)c(C(F)(F)F)c1)c1nc2cc(C#N)c(Cl)cc2o1 (centres unmarked) [Compound 534]"
  Effects Velvetleaf: 5
